Value source: PubChem BioAssay (NCI)

- Tested on: M14 melanoma
- methodSummary: NCI tumour cell line growth inhibition, 48 h
readout: TGI (µM)
Answer format: numeric, µM implied, no suffix.

Past entries and their recorded results:
[[record]]
cpdsmiles = "O=C1C=Cc2c(I)sc(I)c21"
experimentalsystem = "M14 melanoma"
resultunits = "µM"
endpointresult = 75.8

[[record]]
cpdsmiles = "CCCCN1C(=O)C[C@H]2[C@@H]3CCc4cc(OCCN5CCCC5)ccc4[C@H]3CC[C@]2(C)C1=O"
experimentalsystem = "M14 melanoma"
resultunits = "µM"
endpointresult = 3.92


// below: TGI requested for another compound
Lookup: State the recorded TGI for this entry: Cc1c(C)c(C)c(CSC(=N)N)c(C)c1C
Found: 22.7
